molecular target: JAK1 (Homo sapiens); construct: 5 μl of catalytic domain recombinant Kinase enzyme+Tyr peptide substrate (Invitrogen, Calif.); assay: Z'-LYTE kinase assay, JAK1 tyrosine phosphorylation activity; conditions: read-out: JAK 1 IC50
Sequence (P23458 875-1153 limits assumed): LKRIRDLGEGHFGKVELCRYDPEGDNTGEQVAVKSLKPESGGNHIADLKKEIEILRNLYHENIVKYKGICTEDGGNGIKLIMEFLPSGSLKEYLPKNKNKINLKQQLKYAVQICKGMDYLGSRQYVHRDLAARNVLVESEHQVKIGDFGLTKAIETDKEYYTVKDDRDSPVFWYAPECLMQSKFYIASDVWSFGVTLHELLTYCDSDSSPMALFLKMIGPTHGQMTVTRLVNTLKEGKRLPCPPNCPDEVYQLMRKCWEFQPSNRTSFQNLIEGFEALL
pIC50: −log10 of the molar value.

| Compound | Target Under Test | pIC50 |
| --- | --- | --- |
| CC(=O)Nc1cccc(Nc2ncc(C(=O)O)c(NCC3CCNC3)n2)c1 (stereo not drawn) | JAK1 (Homo sapiens) | 7.00 to 8.00 |
| CC(=O)Nc1cccc(Nc2ncc(C(N)=O)c(NCc3cccc(Cl)c3)n2)c1 | JAK1 (Homo sapiens) | 7.00 to 8.00 |
| CN1CCN(C(=O)Nc2cccc(Nc3ncc(C(N)=O)c(NCc4ccccc4)n3)c2)CC1 | JAK1 (Homo sapiens) | 7.00 to 8.00 |
| NC(=O)c1cnc(Nc2cccc(NC(=O)C3CC3)c2)nc1NC1CCCC1 | JAK1 (Homo sapiens) | 7.00 to 8.00 |
| CNC(=O)Nc1cc(Nc2ncc(C(N)=O)c(NCc3ccccc3)n2)ccc1C | JAK1 (Homo sapiens) | 7.00 to 8.00 |
| CNC(=O)Nc1cc(Nc2ncc(C(N)=O)c(N[C@H](C)c3ccccc3)n2)ccc1Cl | JAK1 (Homo sapiens) | 6.00 to 7.00 |
| C[C@H]1CCCN1C(=O)Nc1cccc(Nc2ncc(C(N)=O)c(NCc3ccccc3)n2)c1 | JAK1 (Homo sapiens) | 7.00 to 8.00 |
| NC(=O)c1cnc(Nc2ccc(Cl)c(NC(=O)N3CCCCC3)c2)nc1NCc1ccccc1 | JAK1 (Homo sapiens) | < 6.00 |
| CC(=O)Nc1cccc(Nc2ncc(C(N)=O)c(NC3CCC3)n2)c1 | JAK1 (Homo sapiens) | 7.00 to 8.00 |
| COCC(=O)Nc1cccc(Nc2ncc(C(N)=O)c(NCc3ccc(OC)cc3)n2)c1 | JAK1 (Homo sapiens) | 6.00 to 7.00 |
| CN(C)[C@@H]1CCN(C(=O)Nc2cccc(Nc3cc(N[C@H](CO)c4ccccc4)c(C(N)=O)cn3)c2)C1 | JAK1 (Homo sapiens) | < 6.00 |
| CC(=O)Nc1cccc(Nc2ncc(C(N)=O)c(Nc3cccc4nn(C)cc34)n2)c1 | JAK1 (Homo sapiens) | < 6.00 |
| CC(=O)Nc1cccc(Nc2ncc(C(N)=O)c(Nc3cccc4c3cnn4C)n2)c1 | JAK1 (Homo sapiens) | 7.00 to 8.00 |
| CCC(C)CNc1nc(Nc2cccc(NC(C)=O)c2)ncc1C(N)=O (stereo not drawn) | JAK1 (Homo sapiens) | 7.00 to 8.00 |
| CC(=O)Nc1cccc(Nc2cc(NC3CCCC3)c(C(N)=O)cn2)c1 | JAK1 (Homo sapiens) | 6.00 to 7.00 |
| CNc1nc(Nc2cccc(NC(=O)N3CCCC3)c2)ncc1C(N)=O | JAK1 (Homo sapiens) | 6.00 to 7.00 |
| NC(=O)c1cnc(Nc2cccc(NC(=O)N3CCCCC3)c2)nc1NCc1ccccc1 | JAK1 (Homo sapiens) | 7.00 to 8.00 |
| CN(C(=O)N1CCCC1)c1cc(Nc2ncc(C(N)=O)c(NCc3cccc(F)c3)n2)ccc1Cl | JAK1 (Homo sapiens) | < 6.00 |
| CC[C@@H](C)Nc1nc(Nc2cccc(NC(C)=O)c2)ncc1C(N)=O | JAK1 (Homo sapiens) | 8.00 to 9.00 |
| CC(=O)Nc1cccc(Nc2ncc(C(N)=O)c(NC[C@H](C)c3ccccc3)n2)c1 | JAK1 (Homo sapiens) | 6.00 to 7.00 |
| CN(C)[C@@H]1CCN(C(=O)Nc2cccc(Nc3cc(NCc4cccnc4)c(C(N)=O)cn3)c2)C1 | JAK1 (Homo sapiens) | < 6.00 |
| C[C@@H](Nc1nc(Nc2ccc(Cl)c(NC(=O)N3CCCC3)c2)ncc1C(N)=O)c1ccccc1 | JAK1 (Homo sapiens) | < 6.00 |
| CC(=O)Nc1cccc(Nc2ncc(C(N)=O)c(NCc3ccccc3F)n2)c1 | JAK1 (Homo sapiens) | 7.00 to 8.00 |
| C[C@@H](Nc1nc(Nc2cccc(NC(=O)N3CCN(C)CC3)c2)ncc1C(N)=O)c1ccccc1 | JAK1 (Homo sapiens) | 7.00 to 8.00 |
| CC(=O)Nc1cccc(Nc2ncc(C(N)=O)c(N[C@@H](C)C(C)C)n2)c1 | JAK1 (Homo sapiens) | 7.00 to 8.00 |
| CC(=O)Nc1cccc(Nc2ncc(C(N)=O)c(NC3CCCC3)n2)c1 | JAK1 (Homo sapiens) | 7.00 to 8.00 |
| CNC(=O)Nc1cc(Nc2ncc(C(N)=O)c(NCc3ccccc3)n2)ccc1OC | JAK1 (Homo sapiens) | 7.00 to 8.00 |
| CC(=O)Nc1cc(Nc2ncc(C(N)=O)c(Nc3cccc4nsnc34)n2)ccc1OCCCN1CCCCC1 | JAK1 (Homo sapiens) | 7.00 to 8.00 |
| COCC(=O)Nc1cc(Nc2ncc(C(N)=O)c(NCc3ccccc3)n2)ccc1Cl | JAK1 (Homo sapiens) | 6.00 to 7.00 |
| CNC(=O)Nc1cc(Nc2ncc(C(N)=O)c(NCc3cccc(Cl)c3)n2)ccc1Cl | JAK1 (Homo sapiens) | < 6.00 |
| C[C@@H](Nc1nc(Nc2cccc(NC(=O)N3CCCCC3)c2)ncc1C(N)=O)c1ccccc1 | JAK1 (Homo sapiens) | 6.00 to 7.00 |
| NC(=O)c1cnc(Nc2cccc(NC(=O)N3CC=CC3)c2)nc1NCc1ccccc1 | JAK1 (Homo sapiens) | 7.00 to 8.00 |
| COCC(=O)Nc1cccc(Nc2ncc(C(N)=O)c(NCc3ccc(C)cc3)n2)c1 | JAK1 (Homo sapiens) | 6.00 to 7.00 |
